B1: LINE1-full (parent)
chain: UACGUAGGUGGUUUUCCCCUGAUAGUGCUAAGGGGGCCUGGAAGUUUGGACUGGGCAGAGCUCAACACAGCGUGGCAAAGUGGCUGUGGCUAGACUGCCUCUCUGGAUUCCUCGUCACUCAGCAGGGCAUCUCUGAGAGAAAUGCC

# Variants of: B1
# measurement_protocol: self-cleavage, relative activity (ratio to wild type); higher = more cleavage; in vitro, sequencing; the parent is a self-cleaving ribozyme
assay_metric: self-cleavage

Below, each entry is followed by its recorded self-cleavage result.
| changes | self-cleavage |
| --- | --- |
| U108C U143G | 1.23 |
| U12C A30U | 0.53 |
| U15C C17G | 1.13 |
| U39A A121U | 1.58 |
| U14C A117G | 1.22 |
| U62C A121C | 0.15 |

stdin: Given the variant A50U A79G , what is its reported self-cleavage?
stdout: 1.27

stdin: Given the variant U39A C98U , what is its reported self-cleavage?
stdout: 0.45

stdin: Given the variant U5A A31G , what is its reported self-cleavage?
stdout: 0.82

stdin: Given the variant G35A A64U , what is its reported self-cleavage?
stdout: 0.31

stdin: Given the variant U46A U47C , what is its reported self-cleavage?
stdout: 1.13

stdin: Given the variant A57G G75C , what is its reported self-cleavage?
stdout: 0.35

stdin: Given the variant U39C G122U , what is its reported self-cleavage?
stdout: 1.53

stdin: Given the variant G72C C111U , what is its reported self-cleavage?
stdout: 1.1

stdin: Given the variant A121G C128U , what is its reported self-cleavage?
stdout: 1.6

stdin: Given the variant G8C A142G , what is its reported self-cleavage?
stdout: 1.21
